Data provenance: the supplement of paper PMC8617591

System: Mycobacterium tuberculosis Erdman (autoluminescent)
Test: AUC25, normalised area under dose response up to IC25 (fraction (0-1)); higher = more potent at low dose
Conditions: in vitro model: valerate; time point: terminal (~4-5 doublings, model-specific)
Assign AUC25 to each entry below.
// no unit, no text: just the number

Prompt line: Item CO[C@H]1/C=C/O[C@@]2(C)Oc3c(C)c(O)c4c(O)c(c(/C=N/N5CCN(C6CCCC6)CC5)c(O)c4c3C2=O)NC(=O)/C(C)=C\C=C\[C@H](C)[C@H](O)[C@@H](C)[C@@H](O)[C@@H](C)[C@H](OC(C)=O)[C@@H]1C has what recorded AUC25?
Response line: 0.0266

Prompt line: Another compound to check: CO[C@H]1/C=C/O[C@@]2(C)Oc3c(C)c(O)c4c(O)c(c(/C=N/N5CCN(C)CC5)c(O)c4c3C2=O)NC(=O)/C(C)=C\C=C\[C@H](C)[C@H](O)[C@@H](C)[C@@H](O)[C@@H](C)[C@H](OC(C)=O)[C@@H]1C
Response line: 0.0385

Prompt line: Another compound to check: CC(=O)NC[C@H]1CN(c2ccc(N3CCOCC3)c(F)c2)C(=O)O1
Response line: 0.0701

Prompt line: Another compound to check: O=[N+]([O-])c1cn2c(n1)OC[C@@H](OCc1ccc(OC(F)(F)F)cc1)C2
Response line: 0.0896
